Cited source: ChEMBL document CHEMBL4020819

Assay: Half life in dog at 2 mg/kg, iv
Format: ADME, organism-based, Canis lupus familiaris
Details: in vivo
Endpoint Label: half-life (h)
Report the value in h with no unit label.

What measured half-life goes with `O=C(O)c1ccc([C@H]2C[C@@H](NC(=O)C3(c4ccc5c(c4)OC(F)(F)O5)CC3)c3ccc(OC(F)F)cc3O2)cc1` ? 5

----------
Assay: Unbound intrinsic clearance in human hepatocytes
Format: ADME, cell-based, Hepatocyte
# log10 CL free listing for each entry below
Units before log transform: mL/min/kg; reported quantity: CL free; transform: log10.

Answered examples (5):
| Compound | log10 CL free |
| --- | --- |
| COc1ccc2c(c1)[C@H](NC(=O)C1(c3ccc4c(c3)OC(F)(F)O4)CC1)C[C@H](c1cccc(C(=O)O)c1)O2 | 2.26 |
| O=C(O)c1ccc([C@H]2C[C@@H](NC(=O)C3(c4ccc5c(c4)OC(F)(F)O5)CC3)c3ccc(OC(F)F)cc3O2)cc1 | 2.08 |
| O=C(O)c1cccc([C@H]2C[C@@H](NC(=O)C3(c4ccc5c(c4)OC(F)(F)O5)CC3)c3ccc(OC(F)F)cc3O2)c1 | 2.37 |
| Cc1ccc2c(c1)O[C@@H](c1cccc(C(=O)O)c1)C[C@H]2NC(=O)C1(c2ccc3c(c2)OC(F)(F)O3)CC1 | 2.54 |
| COc1ccc2c(c1)O[C@@H](c1ccc(OC)c(OC)c1)C[C@H]2NC(=O)C1(c2ccc3c(c2)OC(F)(F)O3)CC1 | 4.41 |

So what's the measured log10 CL free for this one? `COc1ccc2c(c1)O[C@@H](c1ccc(C(=O)O)cc1)C[C@H]2NC(=O)C1(c2ccc3c(c2)OC(F)(F)O3)CC1` 2.40

So what's the measured log10 CL free for this one? `O=C(O)c1cccc([C@H]2C[C@@H](NC(=O)C3(c4ccc5c(c4)OC(F)(F)O5)CC3)c3ccc(F)cc3O2)c1` 2.64

Quick one: log10 CL free for `COc1ccc2c(c1)O[C@H](c1ccc(OC)c(OC)c1)C[C@@H]2NC(=O)C1(c2ccc3c(c2)OC(F)(F)O3)CC1` ? 4.32

Field request: log10 CL free | item: `O=C(O)c1cccc([C@H]2C[C@@H](NC(=O)C3(c4ccc5c(c4)OC(F)(F)O5)CC3)c3ccc(C(F)(F)F)cc3O2)c1` 2.48

Recorded log10 CL free for `COc1ccc2c(c1)O[C@@H](c1cccc(C(=O)O)c1)C[C@H]2NC(=O)C1(c2ccc3c(c2)OC(F)(F)O3)CC1` , please? 2.62

Entry O=C(NC1C[C@H](c2cccc(CO)c2)Oc2ccccc21)C1(c2ccc3c(c2)OC(F)(F)O3)CC1 (stereo partly specified) : reported log10 CL free = ? 3.59
